- System: GABA receptor-chloride ionophore complex (GR complex)
- Measurement protocol: [35S]TBPS binding modulation assay
- Condition summary: saturating concentrations of test compound
Would you mind telling me the reported Max. Inhib., maximal % of specifically bound [35S]-TBPS displaced of each entry?
The figure you give is taken to be in %; do not add the unit.

Reported Max. Inhib., maximal % of specifically bound [35S]-TBPS displaced for C[C@@H](O)[C@H]1CC[C@H]2[C@@H]3CC[C@H]4C[C@H](O)CC[C@]4(C)[C@H]3CC[C@]12C [5α-PREGNAN-3α,20β-DIOL] : what is it?
100

Reported Max. Inhib., maximal % of specifically bound [35S]-TBPS displaced for C[C@H](O)[C@H]1CC[C@H]2[C@@H]3CC[C@H]4C[C@H](O)CC[C@]4(C)[C@H]3CC[C@]12C [5α-pregnanediol, 5α-pregnan-3α,20α-diol] : what is it?
52

Reported Max. Inhib., maximal % of specifically bound [35S]-TBPS displaced for CCO[C@H]1C[C@@]2(C)[C@@H](CC[C@@H]3[C@@H]2CC[C@]2(C)[C@@H](C(C)=O)CC[C@@H]32)C[C@@H]1O [2β-ETHOXY-3α-HYDROXY-5α-PREGNAN-20-ONE, 2β-Ethoxy-3α-hydroxy-5α-pregnan-20-one] : what is it?
100

###

- Target entity: progesterone receptor (Bos taurus, UniProt F1N712)
- Construct: from tissue; host or cells: bovine uterus cytosol
- Sequence (F1N712 1-914): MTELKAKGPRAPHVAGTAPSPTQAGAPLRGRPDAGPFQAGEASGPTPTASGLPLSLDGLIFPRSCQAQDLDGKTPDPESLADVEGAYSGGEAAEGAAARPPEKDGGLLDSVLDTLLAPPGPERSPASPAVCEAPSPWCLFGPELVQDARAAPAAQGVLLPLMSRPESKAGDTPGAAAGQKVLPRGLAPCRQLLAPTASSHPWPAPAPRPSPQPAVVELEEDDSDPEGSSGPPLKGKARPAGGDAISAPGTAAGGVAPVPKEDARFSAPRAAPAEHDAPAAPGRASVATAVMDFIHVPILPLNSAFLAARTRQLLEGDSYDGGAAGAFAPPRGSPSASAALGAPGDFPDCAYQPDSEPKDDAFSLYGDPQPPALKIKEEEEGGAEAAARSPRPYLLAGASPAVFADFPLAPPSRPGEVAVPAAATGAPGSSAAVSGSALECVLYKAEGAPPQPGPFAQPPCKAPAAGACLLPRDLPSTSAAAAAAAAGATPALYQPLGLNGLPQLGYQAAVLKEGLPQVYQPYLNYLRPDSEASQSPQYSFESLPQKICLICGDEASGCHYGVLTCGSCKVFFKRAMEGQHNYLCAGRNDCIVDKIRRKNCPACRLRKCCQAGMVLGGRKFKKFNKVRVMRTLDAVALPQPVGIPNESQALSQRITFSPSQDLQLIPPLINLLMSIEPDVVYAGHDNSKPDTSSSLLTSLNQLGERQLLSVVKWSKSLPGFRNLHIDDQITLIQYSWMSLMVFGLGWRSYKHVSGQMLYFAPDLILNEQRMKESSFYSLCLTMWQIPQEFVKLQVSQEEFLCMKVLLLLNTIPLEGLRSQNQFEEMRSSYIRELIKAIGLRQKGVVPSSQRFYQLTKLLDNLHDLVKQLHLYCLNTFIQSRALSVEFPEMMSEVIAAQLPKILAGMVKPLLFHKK
- Measurement protocol: Inhibition of 3H-progesterone binding to bovine uteral progesterone receptors
- Condition summary: read-out: % of inhibition of 3H-progesterone binding, B, competitor 10^-6 M; 0.25 nM 3H-progesterone
Would you mind telling me the reported inhibition at 1 µM of each entry?
The figure you give is taken to be in %; do not add the unit.

Reported inhibition at 1 µM for CC(=O)[C@H]1CC[C@H]2[C@@H]3CC[C@H]4C[C@H](O)CC[C@]4(C)[C@H]3CC[C@]12C [Example 3α-OH-DHP, 3α-hydroxy-5α-pregnan-20-one] : what is it?
2

Reported inhibition at 1 µM for `C[C@]12CC[C@@H](O)C[C@H]1CC[C@@H]1[C@@H]2CC[C@]2(C)[C@@H](C(=O)CO)CC[C@@H]12` : what is it?
2

Reported inhibition at 1 µM for `CC(C)(O)[C@H]1CC[C@H]2[C@@H]3CC[C@H]4C[C@](C)(O)CC[C@]4(C)[C@H]3CC[C@]12C` : what is it?
0
